Reported pIC50 is given for each of the following compounds.
biological target: hTRPV3 (Homo sapiens (Human)); assay: FLIPR Assay (calcium flux, HEK293 cells stably expressing TRPV3); type: cell-based; details: read-out: FLIPR IC50
Sequence (Q8NET8 whole entry): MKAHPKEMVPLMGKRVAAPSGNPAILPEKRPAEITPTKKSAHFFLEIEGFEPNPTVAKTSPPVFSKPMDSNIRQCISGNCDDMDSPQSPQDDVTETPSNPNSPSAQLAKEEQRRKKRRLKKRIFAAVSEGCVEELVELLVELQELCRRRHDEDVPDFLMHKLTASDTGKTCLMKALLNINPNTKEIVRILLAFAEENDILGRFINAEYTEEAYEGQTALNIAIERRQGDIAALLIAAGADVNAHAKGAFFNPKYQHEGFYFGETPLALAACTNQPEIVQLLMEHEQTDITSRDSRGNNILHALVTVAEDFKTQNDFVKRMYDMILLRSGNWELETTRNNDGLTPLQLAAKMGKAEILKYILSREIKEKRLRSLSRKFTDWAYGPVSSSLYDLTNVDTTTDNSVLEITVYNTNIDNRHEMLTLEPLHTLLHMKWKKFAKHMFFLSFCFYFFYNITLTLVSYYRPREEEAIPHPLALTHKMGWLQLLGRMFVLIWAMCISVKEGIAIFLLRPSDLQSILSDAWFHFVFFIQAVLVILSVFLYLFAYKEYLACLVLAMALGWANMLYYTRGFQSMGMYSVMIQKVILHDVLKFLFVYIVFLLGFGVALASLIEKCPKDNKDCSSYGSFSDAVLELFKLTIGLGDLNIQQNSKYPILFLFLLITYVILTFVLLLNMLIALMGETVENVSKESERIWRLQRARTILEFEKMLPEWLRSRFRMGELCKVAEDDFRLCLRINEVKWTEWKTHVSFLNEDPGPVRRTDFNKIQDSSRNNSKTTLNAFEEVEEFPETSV
pIC50: −log10 of the molar value.

COMPOUND	QUALIFIER SIGN	pIC50
Cc1ocnc1C(=O)N1CCC(c2ccc(-c3ccccc3C3CC3)cc2CO)C1 (centres unmarked)	=	5.53
Cn1cnc(C(=O)N2CCC(c3ccc(-c4ccccc4C4CC4)cc3CO)C2)c1 (centres unmarked)	=	5.02
CN1CCc2nc(C(=O)N3CCC(c4ccc(-c5ccccc5C5CC5)cc4CO)C3)sc2C1 (centres unmarked)	<	5.00
Cc1ccc(C(=O)N2CCC(c3ccc(-c4ccccc4C4CC4)cc3CO)C2)nc1O (centres unmarked)	=	5.25
O=C(c1ccc(CO)nn1)N1CCC(c2ccc(-c3ccccc3C3CC3)cc2CO)C1 (centres unmarked)	<	5.00
O=C(c1ncc(Cl)cn1)N1CCC(c2ccc(-c3ccccc3C3CC3)cc2CO)C1 (centres unmarked)	=	5.29
Cc1nc(C(=O)N2CCC(c3ccc(-c4ccccc4C4CC4)cc3CO)C2)no1 (centres unmarked)	=	5.73
O=C(c1cccc(CO)n1)N1CCC(c2ccc(-c3ccccc3C3CC3)cc2CO)C1 (centres unmarked)	=	5.34
